- Tested on: 201T
- ASSAY_EXPLANATION: relative viability (nuclei count vs DMSO), 5 days (fraction); higher = more cells survive
- MEASUREMENT_PARAMETERS: first compound 1 µM
ENDPOINT_NAME: relative viability
# print the numeric value only

These recorded examples may help you get a feel for the data.
[
  {
    "MOLECULE": "O=c1cc(N2CCOCC2)oc2c(-c3cccc4c3sc3ccccc34)cccc12 + Nc1ncn([C@H]2C[C@H](O)[C@@H](CO)O2)c(=O)n1 [Decitabine] (partner 2 µM)",
    "relative viability": 0.818
  },
  {
    "MOLECULE": "O=c1cc(N2CCOCC2)oc2c(-c3cccc4c3sc3ccccc34)cccc12 + NC(=O)Nc1cc(-c2cccc(F)c2)sc1C(=O)N[C@H]1CCCNC1 [AZD7762] (partner 0.2 µM)",
    "relative viability": 0.583
  }
]

// below: relative viability requested for another molecule
relative viability reading for CCN(CC)CCCCNc1ncc2cc(-c3cc(OC)cc(OC)c3)c(NC(=O)NC(C)(C)C)nc2n1 + O=C(CCCCCCC(=O)Nc1ccccc1)NO [Vorinostat] (partner 1 µM) : 0.887
